Where do the numbers come from? From PubChem BioAssay AID743059.

Each entry below carries its recorded EC50.
- measurement-target: Nuclear hormone receptor DAF-12 (Heterodera glycines)
- assay: hgDAF-12 reporter activation EC50 – cell-based, luminescence, HEK293, dose response (AID 743059);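 also: agonist potency for compounds that raise hgDAF-12 reporter luminescence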
- cond: HEK293 hgDAF-12 reporter, luciferase luminescence
Calls of active or inactive are those of the source.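 The calls were made as follows: active = EC50 at or below 10 µM; inactive = EC50 above 10 µM.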

The compound listed as OC(c1ccccc1)c1nc(-c2cnc3ccccc3c2)cs1 (centres undefined) has a reported EC50 of > 67.6 µM (inactive)

EC50 recorded for this compound, `CCSCC(C)(C)n1[nH]c2ccccc2c1=O` , is > 67.6 µM (inactive)

// EC50 lookup, compound = `Cn1c(NC(=O)CCc2ccccc2)cc(=O)n(C)c1=O` , result: > 67.5 µM (inactive)

// field: EC50; key: `O=C(CCCc1ccccc1)NC12CC3CC(CC(C3)C1)C2` ; value = > 67.5 µM (inactive)

EC50 recorded for this compound, `CCN(CC)S(=O)(=O)c1ccc(C(=O)OCC(=O)Nc2ccc(-c3nc4ccc(C)cc4s3)cc2)cc1` , is > 67.5 µM (inactive)

Short answer for CCc1ccc(C2CC(c3ccco3)=NN2S(C)(=O)=O)cc1 (centres undefined) : EC50 was > 67.5 µM (inactive)

The compound listed as `Cc1ccc(/C=N/NC(=O)c2ccoc2C)s1` shows EC50 equal to > 67.6 µM (inactive)
